target.entity: Phosphodiesterase 3 (Homo sapiens, UniProt Q14432+Q13370)
protocol.notes: Evaluated for its ability to inhibit PDE3.
Assay type: protein assay
// values below are reported IC50
metric: IC50 (nM)

| smiles | metric | measure.unit | obs.value |
| --- | --- | --- | --- |
| COc1cc2c(-c3cc(OCC4CC4)cc(OCC4CC4)c3)nc(-c3cc(OCC4CC4)cc(OCC4CC4)c3)nc2cc1OCCO | IC50 | nM | 7800 |
| COc1nc(-c2cc(OCC3CC3)cc(OCC3CC3)c2)c2cc(OC)c(OCCO)cc2n1 | IC50 | nM | 390 |
| CCOC(=O)COc1cc2nc(C)nc(-c3cc(OCC4CC4)cc(OCC4CC4)c3)c2cc1OC | IC50 | nM | 700 |
| CCCCc1nc(-c2cc(OCC3CC3)cc(OCC3CC3)c2)c2cc(OC)c(OCCO)cc2n1 | IC50 | nM | 720 |
| COc1cc2c(-c3cc(OCC4CC4)cc(OCC4CC4)c3)nc(OCCCO)nc2cc1OCCO | IC50 | nM | 310 |
| CCOc1nc(-c2cc(OCC3CC3)cc(OCC3CC3)c2)c2cc(OC)c(OCCO)cc2n1 | IC50 | nM | 340 |
| COc1cc2c(-c3cc(OCC4CC4)cc(OCC4CC4)c3)nc(NCCCO)nc2cc1OCCO | IC50 | nM | 430 |
| CCc1nc(-c2cc(OCC3CC3)cc(OCC3CC3)c2)c2cc(OC)c(OCCO)cc2n1 | IC50 | nM | 16 |
| COc1cc2c(-c3cc(OCC4CC4)cc(OCC4CC4)c3)nc(OCCO)nc2cc1OCCO | IC50 | nM | 430 |

---

target.entity: 3',5'-cyclic-AMP phosphodiesterase 4A (Homo sapiens, UniProt P27815)
Sequence (P27815 whole entry): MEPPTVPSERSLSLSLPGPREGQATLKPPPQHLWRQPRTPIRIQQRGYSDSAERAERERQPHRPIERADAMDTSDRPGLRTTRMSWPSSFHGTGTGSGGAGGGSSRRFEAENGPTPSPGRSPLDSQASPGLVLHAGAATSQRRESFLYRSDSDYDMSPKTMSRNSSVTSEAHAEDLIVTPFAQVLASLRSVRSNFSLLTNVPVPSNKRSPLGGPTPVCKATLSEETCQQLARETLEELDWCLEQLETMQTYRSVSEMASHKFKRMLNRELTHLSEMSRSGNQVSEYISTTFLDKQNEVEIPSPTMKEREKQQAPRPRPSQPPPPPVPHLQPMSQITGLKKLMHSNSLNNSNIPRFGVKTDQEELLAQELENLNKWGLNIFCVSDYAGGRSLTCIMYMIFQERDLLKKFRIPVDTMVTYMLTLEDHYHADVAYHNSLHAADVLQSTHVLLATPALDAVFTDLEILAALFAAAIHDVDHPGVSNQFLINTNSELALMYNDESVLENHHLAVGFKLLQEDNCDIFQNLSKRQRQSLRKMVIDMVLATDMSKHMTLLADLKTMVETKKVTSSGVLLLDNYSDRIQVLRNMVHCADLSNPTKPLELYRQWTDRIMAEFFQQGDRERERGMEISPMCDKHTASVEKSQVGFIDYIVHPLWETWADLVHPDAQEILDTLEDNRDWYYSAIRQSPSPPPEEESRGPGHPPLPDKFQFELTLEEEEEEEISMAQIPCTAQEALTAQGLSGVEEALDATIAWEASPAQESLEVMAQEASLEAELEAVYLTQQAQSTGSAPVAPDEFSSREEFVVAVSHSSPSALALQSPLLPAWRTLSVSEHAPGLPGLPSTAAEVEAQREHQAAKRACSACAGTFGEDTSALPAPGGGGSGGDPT
protocol.notes: Evaluated for its ability to inhibit PDE4A.

| smiles | IC50 |
| --- | --- |
| CCc1nc(-c2cc(OCC3CC3)cc(OCC3CC3)c2)c2ccc(OCCO)cc2n1 | 630 nM |
| CCSc1nc(-c2cc(OCC3CC3)cc(OCC3CC3)c2)c2cc(OC)c(OCCO)cc2n1 | 540 nM |
| CCc1nc(-c2cc(OCC3CC3)cc(OCC3CC3)c2)c2cc(OCCO)c(OCCO)cc2n1 | > 100000 nM |
| CCOC(=O)COc1cc2nc(C)nc(-c3cc(OCC4CC4)cc(OCC4CC4)c3)c2cc1OC | > 10000 nM |
| CCc1nc(-c2cc(OCC3CC3)cc(OCC3CC3)c2)c2cc(OC)c(OCc3ccccc3)cc2n1 | > 100000 nM |

---

target.entity: 3',5'-cyclic-AMP phosphodiesterase 4A (Homo sapiens)
protocol.notes: Evaluated for its ability to inhibit PDE4A.
pIC50: −log10 of the molar value.

| smiles | pIC50 |
| --- | --- |
| COc1cc2c(-c3cc(OCC4CC4)cc(OCC4CC4)c3)nc(N3CCOCC3)nc2cc1OCCO | 5.48 |
| CCc1nc(-c2cc(OCC3CC3)cc(OCC3CC3)c2)c2cc(OC)c(OCCO)cc2n1 | 7.52 |
| COc1cc2c(-c3cc(OCC4CC4)cc(OCC4CC4)c3)nc(OCCCO)nc2cc1OCCO | 6.60 |
